# system-tested: hCLK1 (Homo sapiens)
# Sequence (P49759 whole entry): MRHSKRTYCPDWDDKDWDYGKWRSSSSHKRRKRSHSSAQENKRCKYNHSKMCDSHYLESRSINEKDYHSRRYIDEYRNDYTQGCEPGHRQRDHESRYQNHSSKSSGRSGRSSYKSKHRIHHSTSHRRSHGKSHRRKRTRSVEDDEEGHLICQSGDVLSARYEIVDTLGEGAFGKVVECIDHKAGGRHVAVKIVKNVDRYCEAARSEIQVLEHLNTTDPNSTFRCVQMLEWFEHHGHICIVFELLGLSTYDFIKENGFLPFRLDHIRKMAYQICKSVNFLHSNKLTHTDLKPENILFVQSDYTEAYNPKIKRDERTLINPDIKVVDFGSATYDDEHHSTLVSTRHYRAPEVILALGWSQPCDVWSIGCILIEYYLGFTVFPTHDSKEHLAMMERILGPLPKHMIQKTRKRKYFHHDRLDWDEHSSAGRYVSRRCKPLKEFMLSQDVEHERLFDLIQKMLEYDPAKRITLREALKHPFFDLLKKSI
# assay-details: CLK1 Human CMGC Kinase Enzymatic Radiometric Assay [Km ATP]
# Format: biochemical
# stated-conditions: radiometric assay, Km ATP; read-out: IC50 hCLK1
property-measured: IC50 (nM)

I. COc1ccc2c(c1)N(C)C=C(C(C)=O)C2
II. COC(=O)C1=CN(C)c2cc(OC)ccc2C1
Lab note: record which item had the higher IC50, I or II . Lab log: write the label of the selected item as the result. II

----------
Quick reference for melting point among some compounds

> print(dat)
                                   compound     data.value
1  CCCN1C=C(C(C)=O)Cc2ccc(OC)cc21 [Compound 1p]    98 to 99 °C
2  COc1ccc2c(c1)N(CCc1ccccc1)C=C(C(C)=O)C2 [Compound 1o]    92 to 93 °C
3  COc1ccc2cc(C(C)=O)c[n+](C)c2c1.[I-] [Compound 2h]  223 to 224 °C
4  COC(=O)C1=CN(C)c2cc(OC)ccc2C1 [Compound 1j]    95 to 96 °C
5  CCOC(=O)C1=CN(C)c2cc(OC)ccc2C1 [Compound 1k]    93 to 94 °C

// query melting point value for entry COc1ccc2c(c1)N(C)C=C(C#N)C2 [Compound 1i] 127 to 128 °C

Query: melting point; subject: COc1ccc2c(c1)N(C)C=C(C(C)=O)C2 [Compound 1h] 99 to 100 °C
